Origin of the recorded values: paper PMC11951083

target-desc: ZAP70 kinase (h) (Homo sapiens, UniProt P43403)
Sequence (P43403 whole entry): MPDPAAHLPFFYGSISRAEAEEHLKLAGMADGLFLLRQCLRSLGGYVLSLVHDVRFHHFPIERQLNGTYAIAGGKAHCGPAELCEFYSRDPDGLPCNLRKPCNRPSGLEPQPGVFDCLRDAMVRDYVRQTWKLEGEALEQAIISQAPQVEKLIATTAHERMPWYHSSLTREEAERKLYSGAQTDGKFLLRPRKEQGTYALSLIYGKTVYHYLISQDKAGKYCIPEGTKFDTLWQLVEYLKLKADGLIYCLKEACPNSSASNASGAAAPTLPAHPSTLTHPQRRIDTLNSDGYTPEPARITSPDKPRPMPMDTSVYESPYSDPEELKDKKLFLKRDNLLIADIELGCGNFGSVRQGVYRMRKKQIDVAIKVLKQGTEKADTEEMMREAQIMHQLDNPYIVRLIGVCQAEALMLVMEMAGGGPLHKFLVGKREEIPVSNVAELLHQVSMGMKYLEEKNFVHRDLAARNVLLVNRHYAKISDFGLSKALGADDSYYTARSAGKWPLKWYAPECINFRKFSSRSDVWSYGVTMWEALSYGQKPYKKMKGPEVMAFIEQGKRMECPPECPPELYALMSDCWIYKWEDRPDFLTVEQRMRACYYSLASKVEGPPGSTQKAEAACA
procedure-details: ZAP70 kinase (h)
conditions-used: read-out: Inhibition ZAP70 kinase (h)
The reader will find reported inhibition at 10 µM values listed item by item below.
measurement-kind: inhibition at 10 µM (%)

1. O=C(O[C@H](CO)C(F)(F)F)N1CC2(CC(CC3=C4C=CC=[N+]4[B-](F)(F)n4cccc43)C2)C1
4.3
2. O=C(N1CC2(CC(CC3=C4C=CC=[N+]4[B-](F)(F)n4cccc43)C2)C1)N1CC2(CC(n3cnc(C4CC4)n3)C2)C1
6.9
3. O=C1CO[C@H]2CCN(C(=O)N3CC4(CC(CC5=C6C=CC(c7ccc[nH]7)=[N+]6[B-](F)(F)n6cccc65)C4)C3)C[C@H]2N1
5.4
4. O=C(OC(C(F)(F)F)C(F)(F)F)N1CC2(CC(CC3=C4C=CC=[N+]4[B-](F)(F)n4cccc43)C2)C1
-2
5. O=C(OC(C(F)(F)F)C(F)(F)F)N1CC2(CC(CC3=C4C=CC(c5ccc[nH]5)=[N+]4[B-](F)(F)n4cccc43)C2)C1
2.3
